- Tested on: A549
- test.protocol: cells
- run.parameters: Homo sapiens, A549, 48 h
pIC50: −log10 of the molar value.
assay.metric: pIC50

The examples below pair each entry with its known result.
>  <structure.smiles>
NS(=O)(=O)NCCNc1nonc1/C(=N/O)Nc1ccc(F)c(Br)c1

>  <pIC50>
< 4.30

$$$$
>  <structure.smiles>
COc1ccc2/c(=N/O)cc(C(=O)N3CCN(S(=O)(=O)c4ccc(C)cc4)CC3)oc2c1

>  <pIC50>
4.43

$$$$
>  <structure.smiles>
Cc1ccc2/c(=N/O)cc(C(=O)N3CCN(S(=O)(=O)c4cccc([N+](=O)[O-])c4)CC3)oc2c1

>  <pIC50>
< 4.30

$$$$

Quick one: give measured pIC50 for "Cc1ccc2/c(=N/O)cc(C(=O)N3CCN(S(=O)(=O)c4ccc(F)c(F)c4)CC3)oc2c1"
< 4.30
